Some compounds, each annotated with its measured % Activity.
- Tested On: androgen receptor (Rattus norvegicus, UniProt P15207)
- Test Details: L929 Androgen Receptor Functional Assay, Adenovirus Transduction
- Format: cell-based
- Parameters: expressed in transfected cells; host or cells: L929 cells transduced with adenovirus AdEasy+rAR
- Conditions: L929 agonist testing; concentration of 3000 nM
Please reply with the bare figure in % and do not write the unit itself.

Example cases with answers are listed next.
- Compound: "CCSCC(C)(O)c1cc2cc(Cl)ccc2n1S(C)(=O)=O (racemic)"
  % Activity (%): 2
- Compound: "C[S+]([O-])CCC(C)(O)c1cc2cc([N+](=O)[O-])c(C(F)(F)F)cc2[nH]1 (mixture of isomers)"
  % Activity (%): 2
- Compound: "CC(O)(Sc1ccc(N)cc1)c1cc2cc([N+](=O)[O-])c(C(F)(F)F)cc2[nH]1 (racemic)"
  % Activity (%): "−4"
- Compound: "CC(C)CSCC(C)(O)c1cc2cc([N+](=O)[O-])c(C(F)(F)F)cc2[nH]1 (stereo not shown)"
  % Activity (%): 2
- Compound: "CC(O)(CSCC(F)(F)F)c1cc2cc(C#N)c(C(F)(F)F)cc2[nH]1 (racemic)"
  % Activity (%): "−1"
- Compound: "CCCSCC(C)(O)c1cc2cc(Cl)c(C(F)(F)F)cc2[nH]1 (racemic)"
  % Activity (%): 13

Proceed to the following item.
Please report the measured % Activity for CC(O)(CS(=O)(=O)Cc1ccccc1)c1cc2cc([N+](=O)[O-])c(C(F)(F)F)cc2[nH]1 (racemic)
2

---

- Tested On: UniProtKB P15207
- Sequence (P15207 1-902): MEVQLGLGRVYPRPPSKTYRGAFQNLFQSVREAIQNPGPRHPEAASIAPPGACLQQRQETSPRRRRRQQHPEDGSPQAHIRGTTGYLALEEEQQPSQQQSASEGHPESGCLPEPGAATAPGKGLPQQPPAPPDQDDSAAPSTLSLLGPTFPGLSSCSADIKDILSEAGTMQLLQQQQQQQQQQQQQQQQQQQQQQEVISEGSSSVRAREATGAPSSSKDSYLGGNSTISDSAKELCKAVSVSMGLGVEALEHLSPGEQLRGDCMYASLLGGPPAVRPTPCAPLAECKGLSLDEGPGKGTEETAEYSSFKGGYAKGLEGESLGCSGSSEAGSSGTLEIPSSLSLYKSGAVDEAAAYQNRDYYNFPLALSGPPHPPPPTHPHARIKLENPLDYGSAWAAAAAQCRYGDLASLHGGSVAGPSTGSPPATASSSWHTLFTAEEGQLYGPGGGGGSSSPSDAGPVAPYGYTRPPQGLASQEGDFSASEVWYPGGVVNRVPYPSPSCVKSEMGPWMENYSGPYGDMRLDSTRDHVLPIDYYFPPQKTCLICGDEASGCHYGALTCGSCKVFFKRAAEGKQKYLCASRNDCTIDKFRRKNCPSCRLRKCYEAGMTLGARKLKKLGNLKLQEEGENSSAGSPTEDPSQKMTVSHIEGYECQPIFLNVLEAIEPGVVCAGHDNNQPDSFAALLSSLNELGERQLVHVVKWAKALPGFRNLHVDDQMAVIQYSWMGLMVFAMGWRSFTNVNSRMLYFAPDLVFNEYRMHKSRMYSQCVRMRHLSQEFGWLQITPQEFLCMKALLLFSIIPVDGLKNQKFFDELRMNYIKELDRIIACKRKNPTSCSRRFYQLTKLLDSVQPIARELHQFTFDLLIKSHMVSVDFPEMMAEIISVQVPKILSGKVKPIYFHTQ
- Test Details: Androgen Receptor Binding Using Rat Ventral Prostate Cytosol
- Parameters: from tissue; host or cells: ventral prostate cytosol of castrated male Sprague Dawley or Wistar rats
- Conditions: Rat Cytosol; Concentration 1000 nM
Observable: % Inhibition (%)
Record the value in %, omitting the unit from your answer.

- Compound: "CC(O)(c1cc2cc(C#N)c(C(F)(F)F)cc2[nH]1)S(=O)(=O)c1ccc(Cl)cc1 (racemic)"
  Scale Unit: "%"
  Reported Result: "−8.4"
- Compound: "CC(O)(Sc1ccccc1)c1cc2cc([N+](=O)[O-])c(C(F)(F)F)cc2[nH]1 (racemic)"
  Scale Unit: "%"
  Reported Result: 35.4
- Compound: "CC(O)(Sc1ccc(Cl)c(Cl)c1)c1cc2cc([N+](=O)[O-])c(C(F)(F)F)cc2[nH]1 (racemic)"
  Scale Unit: "%"
  Reported Result: 41
- Compound: "Cc1ccc(C(=O)OCC(C)(O)c2cc3cc([N+](=O)[O-])c(C(F)(F)F)cc3[nH]2)cc1 (racemic)"
  Scale Unit: "%"
  Reported Result: 31
- Compound: "CS(=O)(=O)n1c(C2(O)CCN(C(=O)c3ccc(Cl)cc3)CC2)cc2cc(Cl)c(C(F)(F)F)cc21"
  Scale Unit: "%"
  Reported Result: 2
- Compound: "CC(O)(Sc1ccc(Cl)cc1)c1cc2cc(C#N)c(C(F)(F)F)cc2[nH]1 (racemic)"
  Scale Unit: "%"
  Reported Result: 14.05

With those in mind, consider the next compound.
Consider the compound CC(O)(c1cc2cc([N+](=O)[O-])c(C(F)(F)F)cc2[nH]1)S(=O)(=O)c1ccc(Cl)c(Cl)c1 (racemic) and give its recorded % Inhibition.
26

---

- Tested On: androgen receptor (Rattus norvegicus)
- Test Details: COS-7 Whole-Cell Androgen Receptor Binding Assay, Adenovirus Transduction
- Conditions: COS Binding; concentration of 3000 nM unless otherwise noted
% Inhibition listing for selected compounds.

- Compound: "CC(O)(C[S+]([O-])Cc1ccccc1)c1cc2cc([N+](=O)[O-])c(C(F)(F)F)cc2[nH]1 (mixture of isomers) [compound 161]"
  Reported Result: "20%"

Given the compound COc1ccc(SCC(C)(O)c2cc3cc(Cl)c(C(F)(F)F)cc3n2S(C)(=O)=O)cc1 (racemic) [compound 130] , write its reported % Inhibition.
−8%

Check the records and state % Inhibition for CC(O)(CSCC(F)(F)F)c1cc2cc([N+](=O)[O-])c(C(F)(F)F)cc2[nH]1 (single isomer, unassigned) [compound 202]
50%

Quick one: give measured % Inhibition for CCSCC(C)(O)c1cc2cc(F)c(Cl)cc2[nH]1 (racemic) [compound 206]
−40%

Quote % Inhibition reported for COc1ccc(S(=O)(=O)CC(C)(O)c2cc3cc(Cl)c(C(F)(F)F)cc3[nH]2)cc1 (racemic) [compound 129] please.
10%

Identify measured % Inhibition corresponding to CC(O)(CSc1ccc(N)cc1)c1cc2cc(Cl)c(C(F)(F)F)cc2n1S(C)(=O)=O (racemic) [compound 125]
30%

Note down % Inhibition recorded for CCSCC(C)(O)c1cc2cc(Cl)ccc2n1S(C)(=O)=O (racemic) [compound 154]
50%

Answer with reported % Inhibition of C[S+]([O-])CCC(C)(O)c1cc2cc([N+](=O)[O-])c(C(F)(F)F)cc2[nH]1 (mixture of isomers) [compound 50]
7%

---

- Tested On: androgen receptor (Rattus norvegicus)
- Test Details: Androgen Receptor Binding Using Rat Ventral Prostate Cytosol
- Design: from tissue; host or cells: ventral prostate cytosol of castrated male Sprague Dawley or Wistar rats
- Conditions: Rat Cytosol; Concentration 3000 nM
For each record, check the reported % Inhibition: if it is below 30% write condition met, else write condition not met.

Known results for compounds:
- Compound: "CN(C)c1ccc(S(=O)(=O)CC(C)(O)c2cc3cc(Cl)c(C(F)(F)F)cc3[nH]2)cc1 (racemic) [compound 126]"
  Tested On: "androgen receptor (Rattus norvegicus)"
  Assigned Label: "condition met"
- Compound: "CC(O)(C[S+]([O-])Cc1ccccc1)c1cc2cc([N+](=O)[O-])c(C(F)(F)F)cc2[nH]1 (mixture of isomers) [compound 161]"
  Tested On: "androgen receptor (Rattus norvegicus)"
  Assigned Label: "condition not met"
- Compound: "CC(C)SC(C)(CO)c1cc2cc([N+](=O)[O-])c(C(F)(F)F)cc2[nH]1 (racemic) [compound 268]"
  Tested On: "androgen receptor (Rattus norvegicus)"
  Assigned Label: "condition met"
- Compound: "CC(O)(CS(=O)(=O)Cc1ccccc1)c1cc2cc([N+](=O)[O-])c(C(F)(F)F)cc2[nH]1 (racemic) [compound 162]"
  Tested On: "androgen receptor (Rattus norvegicus)"
  Assigned Label: "condition met"
- Compound: "CC(O)(Sc1ccc(N)cc1)c1cc2cc([N+](=O)[O-])c(C(F)(F)F)cc2[nH]1 (racemic) [compound 266]"
  Tested On: "androgen receptor (Rattus norvegicus)"
  Assigned Label: "condition met"

Does this compound meet the criterion % Inhibition < 30%? CC(O)(Sc1ccc(N)cc1)c1cc2cc(Cl)c(C(F)(F)F)cc2[nH]1 (racemic) [compound 265]
condition not met

Problem: For the compound COc1ccc(S(=O)(=O)CC(C)(O)c2cc3cc(Cl)c(C(F)(F)F)cc3[nH]2)cc1 (racemic) [compound 129] , is % Inhibition under 30%?
condition not met

Lab note: confirm whether the reported % Inhibition for this compound is below 30%, equality not counting. compound: COc1ccc(SCC(C)(O)c2cc3cc(Cl)c(C(F)(F)F)cc3n2S(C)(=O)=O)cc1 (racemic) [compound 130]
condition not met
